Test system: SARS-CoV-2 pseudovirus
assayName: microbe, parasite or virus in culture
Type: cell-based
measurementConditions: Severe acute respiratory syndrome-related coronavirus, 293T/ACE2, 48 h, read-out: half inhibitory concentration IC50 to inhibit entering of the SARS-CoV-2 pseudovirus into a target cell
Assign IC50 to each entry below.
Answers are plain numbers, in µM.

Guide cases for IC50, answers given:
INSERT INTO measurements (molecule, subjectoftest, assaymetric, reportedvalue) VALUES
  ('O=C(/C=C/c1ccc(O)c2oc(-c3ccc(O)c(O)c3)cc12)O[C@H](Cc1ccc(O)c(O)c1)C(=O)O [salvianolic acid C]', 'SARS-CoV-2 pseudovirus', 'IC50', 5.9),
  ('O=C(O)[C@H](O)Cc1ccc(O)c(O)c1 [salvianic acid A]', 'SARS-CoV-2 pseudovirus', 'IC50', 2.7),
  ('Cc1cccc2c3c(ccc12)C1=C(C(=O)C3=O)[C@@H](C)CO1 [dihydrotanshinone I]', 'SARS-CoV-2 pseudovirus', 'IC50', 0.68);

Next, consider the following molecule.
Problem: Query (molecule): O=C(/C=C/c1ccc(O)c2c1[C@H](C(=O)O[C@H](Cc1ccc(O)c(O)c1)C(=O)O)[C@@H](c1ccc(O)c(O)c1)O2)O[C@H](Cc1ccc(O)c(O)c1)C(=O)O [salvianolic acid B] ; field requested: IC50
Result: 0.416

Data origin: patent EP4154878A1
